test system: blackgrass (Alopecurus myosuroides); assay: Test C preemergence; format: in vivo; conditions: 250 g ai/ha, scale 0 to 100, 0 no effect, 100 complete control
Simple rule here: Plant response rating, Blackgrass less than 90 is Satisfied, otherwise Not satisfied.

{"Molecule": "O=C1NCC(c2ccc(I)cc2)C1C(=O)Nc1cccc(F)c1F (racemic)", "Label": "Satisfied"}
{"Molecule": "CN1CC(c2cccc(OC(F)F)c2)C(C(=O)Nc2cccc(F)c2F)C1=O (stereo not shown)", "Label": "Satisfied"}

Record CN1CC(c2cccc(OC(F)(F)C(F)F)c2)C(C(=O)Nc2ccccc2C(F)(F)F)C1=O (stereo not shown) : is its Plant response rating, Blackgrass strictly below 90?
Not satisfied

Record CN1CC(c2ccc(F)c(F)c2)C(C(=O)Nc2ccccc2C(F)(F)F)C1=O (stereo not shown) : is its Plant response rating, Blackgrass strictly below 90?
Satisfied

Record CN1CC(c2cc(F)cc(F)c2)C(C(=O)Nc2ccc(F)c(F)c2F)C1=O (stereo not shown) : is its Plant response rating, Blackgrass strictly below 90?
Not satisfied

====

test system: wheat (Triticum aestivum); assay: Test A postemergence; format: in vivo; conditions: 125 g ai/ha, postemergence; visual rating after approx. 10 d, 0 to 100 scale (0 no effect, 100 complete control)
Source text: […]
Measure: Plant response rating, Wheat
Output: the number by itself.

Here's what some known entries look like.
{"Molecule": "O=C1NCC(c2cc(F)c(F)cc2F)C1C(=O)Nc1cccc(F)c1F (racemic)", "Plant response rating, Wheat": 0}
{"Molecule": "O=C1NCC(c2cccc(C(F)(F)F)c2F)C1C(=O)Nc1ccccc1F (stereo not drawn)", "Plant response rating, Wheat": 20}
{"Molecule": "O=C1NCC(c2cc(C(F)(F)F)cc(C(F)(F)F)c2)C1C(=O)Nc1ccc(F)cc1F (stereo not drawn)", "Plant response rating, Wheat": 0}

// field: Plant response rating, Wheat; key: CN1CC(c2ccc(Br)cc2)C(C(=O)Nc2ccc(F)cc2F)C1=O (stereo not drawn) ; value = 0

// field: Plant response rating, Wheat; key: CCc1cc(C2CNC(=O)C2C(=O)Nc2ccccc2F)cs1 (racemic) ; value = 0

// field: Plant response rating, Wheat; key: CN1CC(c2cccc(C(F)(F)F)c2)C(C(=O)Nc2ccccc2)C1=O (stereo not drawn) ; value = 40

====

system: crabgrass, large (large crabgrass, Digitaria sanguinalis); assay: Test C preemergence; format: in vivo; details: 250 g ai/ha, scale 0 to 100, 0 no effect, 100 complete control
Measure: Plant response rating, Crabgrass, Large
Output: the number by itself.

Here's what some known entries look like.
{"Compound": "CN1CC(c2cccc(OC(F)(F)C(F)F)c2)C(C(=O)Nc2ccccc2C(F)(F)F)C1=O (centres unmarked) [Compound 431]", "Study System": "crabgrass, large (large crabgrass, Digitaria sanguinalis)", "Plant response rating, Crabgrass, Large": 100}
{"Compound": "O=C1NCC(c2ccc3c(c2)OC(F)(F)O3)C1C(=O)Nc1cccc(F)c1F (centres unmarked) [Compound 635]", "Study System": "crabgrass, large (large crabgrass, Digitaria sanguinalis)", "Plant response rating, Crabgrass, Large": 98}
{"Compound": "O=C1NCC(c2cccc(OC(F)F)c2)C1C(=O)Nc1ccc(F)cc1F (centres unmarked) [Compound 421]", "Study System": "crabgrass, large (large crabgrass, Digitaria sanguinalis)", "Plant response rating, Crabgrass, Large": 95}
{"Compound": "CN1CC(c2cccc(OC(F)F)c2)C(C(=O)Nc2cccc(F)c2F)C1=O (centres unmarked) [Compound 616]", "Study System": "crabgrass, large (large crabgrass, Digitaria sanguinalis)", "Plant response rating, Crabgrass, Large": 95}

// field: Plant response rating, Crabgrass, Large; key: CN1C[C@H](c2ccc(F)c(F)c2)[C@@H](C(=O)Nc2ccccc2F)C1=O [Compound 596] ; value = 100

====

test system: Kochia (Kochia scoparia); assay: Test A preemergence; assay type: in vivo; conditions: 125 g ai/ha, preemergence; 0 to 100 scale (0 no effect, 100 complete control)
Measured Plant response rating, Kochia of individual entries
Output: the number by itself.

Here's what some known entries look like.
{"Compound": "CN1CC(c2ccc(Cl)cc2)C(C(=O)Nc2ccccc2S(C)(=O)=O)C1=O (centres unmarked)", "Study System": "Kochia (Kochia scoparia)", "Measure": "Plant response rating, Kochia", "Assay Result": 60}
{"Compound": "Cc1cc(C2CNC(=O)C2C(=O)Nc2cccc(F)c2F)ccc1F (centres unmarked)", "Study System": "Kochia (Kochia scoparia)", "Measure": "Plant response rating, Kochia", "Assay Result": 60}
{"Compound": "C=C(C)CN1CC(c2cccc(C(F)(F)F)c2)C(C(=O)Nc2cccc(F)c2F)C1=O (centres unmarked)", "Study System": "Kochia (Kochia scoparia)", "Measure": "Plant response rating, Kochia", "Assay Result": 0}
{"Compound": "O=C1NCC(c2ccc(F)cc2F)C1C(=O)Nc1cccc(F)c1F (centres unmarked)", "Study System": "Kochia (Kochia scoparia)", "Measure": "Plant response rating, Kochia", "Assay Result": 20}
{"Compound": "CN1CC(c2cccc(OC(F)(F)C(F)F)c2)C(C(=O)Nc2ccc(F)c(F)c2F)C1=O (centres unmarked)", "Study System": "Kochia (Kochia scoparia)", "Measure": "Plant response rating, Kochia", "Assay Result": 70}
{"Compound": "Cc1cc(C2CN(C)C(=O)C2C(=O)Nc2ccccc2F)ccc1F (centres unmarked)", "Study System": "Kochia (Kochia scoparia)", "Measure": "Plant response rating, Kochia", "Assay Result": 40}
{"Compound": "CN1CC(c2ccc(Cl)cc2)C(C(=O)Nc2ccc(F)cc2F)C1=O (centres unmarked)", "Study System": "Kochia (Kochia scoparia)", "Measure": "Plant response rating, Kochia", "Assay Result": 70}

// field: Plant response rating, Kochia; key: O=C1NCC(c2cccc(OC(F)F)c2)C1C(=O)Nc1cccc(OC(F)F)c1 (centres unmarked) ; value = 0

====

tested on: sedge, umbrella (small-flower umbrella sedge, Cyperus difformis); test: Test B flooded paddy test; format: in vivo; settings: Cyperus difformis, 250 g ai/ha, Flood; 0 to 100 scale where 0 is no effect and 100 is complete control; read-out: Sedge, Umbrella plant response rating
Measure: pest or weed control at 250 g/ha (%)
Express your answer in %, writing the number without its unit.

Here's what some known entries look like.
{"Compound": "CCc1cc([C@H]2CNC(=O)[C@@H]2C(=O)Nc2cccc(F)c2F)cs1", "pest or weed control at 250 g/ha (%)": 0}
{"Compound": "CN1C[C@H](c2csc3c2CCCC3)[C@@H](C(=O)Nc2cccc(F)c2F)C1=O", "pest or weed control at 250 g/ha (%)": 0}
{"Compound": "O=C1NCC(c2ccccc2OC(F)(F)C(F)F)C1C(=O)Nc1cccc(F)c1F (stereo not drawn)", "pest or weed control at 250 g/ha (%)": 0}
{"Compound": "Cc1ccccc1NC(=O)[C@H]1C(=O)N(C)C[C@@H]1c1ccc(C(F)(F)F)cc1", "pest or weed control at 250 g/ha (%)": 0}

// field: pest or weed control at 250 g/ha; key: Cc1nc([C@H]2CN(C)C(=O)[C@@H]2C(=O)Nc2cccc(F)c2F)cs1 ; value = 0

// field: pest or weed control at 250 g/ha; key: Cc1ccc([C@H]2CN(C)C(=O)[C@@H]2C(=O)Nc2ccccc2S(C)(=O)=O)cc1Cl ; value = 0

====

Measured Barnyardgrass plant response rating of individual entries
system: barnyardgrass (Echinochloa crus-galli); assay: Test A postemergence; format: in vivo; conditions: 125 g ai/ha, postemergence; visual injury rating on 0 to 100 scale (0 no effect, 100 complete control), approx. 10 d
Output: the number by itself.

{"Molecule": "C=C(Cl)CN1CC(c2cccc(C(F)(F)F)c2)C(C(=O)Nc2ccccc2F)C1=O (centres unmarked)", "Barnyardgrass plant response rating": 0}

// field: Barnyardgrass plant response rating; key: O=C(Nc1ccccc1F)C1C(=O)N(CC=CBr)CC1c1cccc(C(F)(F)F)c1 (centres unmarked) ; value = 0

// field: Barnyardgrass plant response rating; key: CN1CC(c2cccc(OC(F)(F)C(F)F)c2)C(C(=O)Nc2ccccc2F)C1=O (centres unmarked) ; value = 90

// field: Barnyardgrass plant response rating; key: CS(=O)(=O)c1ccccc1NC(=O)C1C(=O)NCC1c1ccc(Br)cc1 (centres unmarked) ; value = 20

// field: Barnyardgrass plant response rating; key: O=C1NCC(c2c(F)cccc2F)C1C(=O)Nc1cccc(F)c1F (racemic) ; value = 0

// field: Barnyardgrass plant response rating; key: CN1CC(c2ccc(Cl)cc2)C(C(=O)Nc2ccc(F)cc2F)C1=O (centres unmarked) ; value = 90

// field: Barnyardgrass plant response rating; key: CN1CC(c2ccc3c(c2)OC(F)(F)O3)C(C(=O)Nc2ccc(F)cc2F)C1=O (centres unmarked) ; value = 80

// field: Barnyardgrass plant response rating; key: COc1cccc(NC(=O)C2C(=O)NCC2c2cccc(OC(F)F)c2)c1F (centres unmarked) ; value = 30

FYI, the data here is from patent US12077503B2.
